Test: chemical genetic growth profiling, strain panel (AID 1159580);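 note: tested at 20 µM; growth read once vehicle control cultures reached saturation at 30 °C; 1 = growth at the plate median or of vehicle wells; lower values mean less growth of the strain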
Conditions: S. cerevisiae deletion strains, growth OD, locus YKR091W, strain srl3, stronger effect = lower value
Among all 5,500 compounds or so, about 2,000 (36%) were called active. Roughly 18% stayed inconclusive and do not appear here. This is one part of the list.
Assign labels as follows, please: met for normalized growth below 1; not met for normalized growth equal to or exceeding 1.

Prompt line: Strictly below 1: is that where normalized growth of `COc1ccc(-c2coc3c(O)c(OC)ccc3c2=O)cc1` sits?
Response line: met

Prompt line: Strictly below 1: is that where normalized growth of `COc1ccc(-c2cc(=O)c3c(O)cc(OC)c(OC)c3o2)c(OC)c1` sits?
Response line: not met

* * *

Assignment: determine reported normalized growth for the given compounds.
Assay: chemical genetic growth profiling, strain panel (AID 1159580)
Details: S. cerevisiae deletion strains, growth OD, locus YJL187C, strain SWE1 (second series), stronger effect = lower value
Hit rate of the full screen: of about 5,500 compounds, about 2,000 (36%) were called active. Another 18% or so got no clear call; they are omitted. The list shows a part of the results.
Respond numerically, and do not add a unit to the figure.

Prompt line: What value of normalized growth has been recorded for this entry: `COc1cc(OC)c2c(c1)O[C@H](c1ccc(OC)c(OC)c1)[C@@H](O)C2`
Response line: 1.03

Prompt line: What value of normalized growth has been recorded for this entry: `O=C(O)c1cc(=O)c2cc(Cl)ccc2[nH]1`
Response line: 1.01

Prompt line: What value of normalized growth has been recorded for this entry: CO[C@H]1C[C@H](O[C@H]2[C@H](C)[C@@H](OC3O[C@H](C)C[C@H](N(C)C)[C@H]3O)[C@@H](C)C[C@]3(CO3)C(=O)[C@H](C)[C@@H](O)[C@@H](C)[C@@H](C)OC(=O)[C@@H]2C)O[C@@H](C)[C@@H]1O (stereo not given in full)
Response line: 1.02

Prompt line: What value of normalized growth has been recorded for this entry: `C1CCc2nnnn2CC1`
Response line: 1.04

Prompt line: What value of normalized growth has been recorded for this entry: `C[CH2][Hg][S]c1ccccc1C(=O)O`
Response line: 0.0465

* * *

Test: chemical genetic growth profiling, strain panel (AID 1159580);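 note: tested at 20 µM; growth read once vehicle control cultures reached saturation at 30 °C; 1 = growth at the plate median or of vehicle wells; lower values mean less growth of the strain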
Details: S. cerevisiae deletion strains, growth OD, locus YDL074C, strain BRE1, stronger effect = lower value
The whole screen tested about 5,500 compounds, of which about 2,000 (36%) were called active. Not shown: some 18% with an inconclusive outcome. The list shows a part of the results.
reported_property: normalized growth
Respond numerically, and do not add a unit to the figure.

Prompt line: What value of normalized growth has been recorded for this entry: CC1(C)C2CC[C@]3(C)C(C(=O)C=C4[C@@H]5C[C@@](C)(C(=O)O)CC[C@]5(C)CC[C@]43C)[C@@]2(C)CC[C@@H]1O (some centres undefined)
Response line: 1.02

Prompt line: What value of normalized growth has been recorded for this entry: CC1(C)C2CC[C@]3(C)C(C(=O)C=C4[C@@H]5C[C@@](C)(C(=O)O)CC[C@]5(C)CC[C@]43C)[C@@]2(C)CC[C@@H]1OC(=O)CCC(=O)O (some centres undefined)
Response line: 1.02

Prompt line: What value of normalized growth has been recorded for this entry: C[N+](C)(C)CCOP(=O)([O-])OP(=O)(O)OC[C@H]1OC(n2ccc(N)nc2=O)[C@H](O)[C@@H]1O (some centres undefined)
Response line: 0.972

Prompt line: What value of normalized growth has been recorded for this entry: `C[N+](C)(C)CC(=O)[O-]`
Response line: 0.949

* * *

Assay: chemical genetic growth profiling, strain panel (AID 1159580);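 note: tested at 20 µM; growth read once vehicle control cultures reached saturation at 30 °C; 1 = growth at the plate median or of vehicle wells; lower values mean less growth of the strain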
Settings: S. cerevisiae deletion strains, growth OD, locus YBR009C, strain hhf1, stronger effect = lower value
Out of some 5,500 compounds screened, about 2,000 (36%) were called active. Roughly 18% stayed inconclusive and do not appear here. This is one part of the list.
Assignment: determine reported normalized growth for the given molecules.
Respond numerically, and do not add a unit to the figure.

Prompt line: What value of normalized growth has been recorded for this entry: CCC1(c2ccc(N)cc2)CCC(=O)NC1=O (centres undefined)
Response line: 0.984

Prompt line: What value of normalized growth has been recorded for this entry: `NC(N)=NOCC[C@H](N)C(=O)O`
Response line: 1.01

Prompt line: What value of normalized growth has been recorded for this entry: `N=c1nc(N2CCCCC2)cc(N)n1O`
Response line: 1

Prompt line: What value of normalized growth has been recorded for this entry: `C=CC1=C(C(=O)O)N2C(=O)[C@@H](NC(=O)/C(=N/O)c3csc(N)n3)[C@H]2SC1`
Response line: 1

Prompt line: What value of normalized growth has been recorded for this entry: CNC1(C)C2CCC(C2)C1(C)C (centres undefined)
Response line: 0.993

Prompt line: What value of normalized growth has been recorded for this entry: `COc1ccc(-c2coc3c(O)c(OC)ccc3c2=O)cc1`
Response line: 0.887

Prompt line: What value of normalized growth has been recorded for this entry: CCC1(C)CC(=O)NC1=O (centres undefined)
Response line: 0.97

Prompt line: What value of normalized growth has been recorded for this entry: `c1ccc(CC2=NCCN2)cc1`
Response line: 0.998

Prompt line: What value of normalized growth has been recorded for this entry: `CCCCOc1ccc(OCCCN2CCOCC2)cc1`
Response line: 0.96

* * *

Assignment: determine reported normalized growth for the given compounds.
Experiment: chemical genetic growth profiling, strain panel (AID 1159580);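 note: tested at 20 µM; growth read once vehicle control cultures reached saturation at 30 °C; 1 = growth at the plate median or of vehicle wells; lower values mean less growth of the strain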
Conditions: S. cerevisiae deletion strains, growth OD, locus YER002W, strain NOP16, stronger effect = lower value
Screen size: about 5,500 compounds; about 2,000 (36%) were called active. About 18% were inconclusive and are not listed. This is one part of the list.
Respond numerically, and do not add a unit to the figure.

Prompt line: What value of normalized growth has been recorded for this entry: `CCCCCCCCCCCCCCSCC(=O)O`
Response line: 0.937

Prompt line: What value of normalized growth has been recorded for this entry: CCOC(=O)C1=C(C)NC(=S)NC1c1cccc(O)c1 (configuration not stated)
Response line: 0.989

Prompt line: What value of normalized growth has been recorded for this entry: `C[C@H](NC(=O)/C(C#N)=C/c1ccc(O)c(O)c1)c1ccccc1`
Response line: 0.985

Prompt line: What value of normalized growth has been recorded for this entry: `O=Nc1ccc2oc(=O)ccc2c1`
Response line: 1.01

Prompt line: What value of normalized growth has been recorded for this entry: `CSC(=N)N`
Response line: 0.984

Prompt line: What value of normalized growth has been recorded for this entry: `NC(=NCCC[C@H](N)C(=O)O)NO`
Response line: 1.01

Prompt line: What value of normalized growth has been recorded for this entry: `CCCc1c(OCCCOc2ccc(OCC(=O)O)cc2)ccc(C(C)=O)c1O`
Response line: 1.04

Prompt line: What value of normalized growth has been recorded for this entry: CCCC[N+]1(C)C2CC(OC(=O)[C@H](CO)c3ccccc3)CC1C1OC12 (some centres not stated)
Response line: 1.01

Prompt line: What value of normalized growth has been recorded for this entry: COc1cc(C(O)C(=O)O)ccc1O (configuration not stated)
Response line: 1.03

Prompt line: What value of normalized growth has been recorded for this entry: `CCC1(c2ccccc2)C(=O)NCNC1=O`
Response line: 0.988

Prompt line: What value of normalized growth has been recorded for this entry: `C1CCc2nnnn2CC1`
Response line: 1.01

Prompt line: What value of normalized growth has been recorded for this entry: `CCCC(=O)NCCc1c2n(c3ccc(OC)cc13)CCCc1ccccc1-2`
Response line: 0.996

Prompt line: What value of normalized growth has been recorded for this entry: `CN(C)CC[C@@H](c1ccc(Cl)cc1)c1ccccn1`
Response line: 0.998

Prompt line: What value of normalized growth has been recorded for this entry: `Cn1cc(C2=C(c3ccc(Cl)cc3Cl)C(=O)NC2=O)c2ccccc21`
Response line: 0.994

Prompt line: What value of normalized growth has been recorded for this entry: `N#C/C(=C\c1ccc(O)c(O)c1)C(=O)Nc1ccccc1`
Response line: 1.01

Prompt line: What value of normalized growth has been recorded for this entry: `c1ccc2cc(CC3=NCCN3)ccc2c1`
Response line: 0.998

Prompt line: What value of normalized growth has been recorded for this entry: `CCCCCCCCCCCCC/C=C/[C@@H](O)[C@@H](N)CO`
Response line: 1.02

Prompt line: What value of normalized growth has been recorded for this entry: `CCCC(=O)NCCc1c2n(c3ccc(OC)cc13)Cc1ccccc1-2`
Response line: 0.995

Prompt line: What value of normalized growth has been recorded for this entry: `C[C@H]1OC[C@@H](C[N+](C)(C)C)O1`
Response line: 1.04

Prompt line: What value of normalized growth has been recorded for this entry: `CC[N+](C)(C)Cc1ccccc1Br`
Response line: 0.993

Prompt line: What value of normalized growth has been recorded for this entry: `CCOC(=O)c1ncn2c1CN(C)C(=O)c1cc(F)ccc1-2`
Response line: 0.993

Prompt line: What value of normalized growth has been recorded for this entry: Ic1ccccc1CNC1C2CCN(CC2)C1C(c1ccccc1)c1ccccc1 (configuration not stated)
Response line: 1.05

Prompt line: What value of normalized growth has been recorded for this entry: C[N+]1(C)C2CCC1CC(OC(=O)c1c[nH]c3ccccc13)C2 (configuration not stated)
Response line: 0.974

Prompt line: What value of normalized growth has been recorded for this entry: CCC1(c2ccc(N)cc2)CCC(=O)NC1=O (configuration not stated)
Response line: 0.977

Prompt line: What value of normalized growth has been recorded for this entry: `O=C(O)c1cc(=O)c2ccc(Cl)cc2[nH]1`
Response line: 1.03

Prompt line: What value of normalized growth has been recorded for this entry: CC(N)Cc1c[nH]c2ccc(O)cc12 (configuration not stated)
Response line: 1

Prompt line: What value of normalized growth has been recorded for this entry: `CC(C)Oc1cccnc1N(C)C1CCN(Cc2ccccc2)CC1`
Response line: 0.967
